Multi-source literature compilation: pIC50 on Amine oxidase [flavin-containing] B (Homo sapiens).
# system under test: Amine oxidase [flavin-containing] B (Homo sapiens)
# Sequence (P27338 whole entry): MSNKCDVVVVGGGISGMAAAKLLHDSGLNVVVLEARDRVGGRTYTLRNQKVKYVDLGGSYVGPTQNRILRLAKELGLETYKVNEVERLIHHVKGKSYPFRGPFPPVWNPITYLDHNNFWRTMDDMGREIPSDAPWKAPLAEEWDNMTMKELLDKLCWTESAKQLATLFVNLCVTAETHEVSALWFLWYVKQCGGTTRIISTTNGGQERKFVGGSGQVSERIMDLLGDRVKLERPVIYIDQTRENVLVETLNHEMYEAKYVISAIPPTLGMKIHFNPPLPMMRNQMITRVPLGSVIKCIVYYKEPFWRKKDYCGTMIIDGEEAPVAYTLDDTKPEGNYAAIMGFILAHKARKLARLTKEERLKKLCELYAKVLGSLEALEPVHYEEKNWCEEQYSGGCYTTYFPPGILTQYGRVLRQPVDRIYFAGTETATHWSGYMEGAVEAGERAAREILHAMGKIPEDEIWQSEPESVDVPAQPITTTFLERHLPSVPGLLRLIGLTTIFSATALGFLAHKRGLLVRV
pIC50: −log10 of the molar value.

1. COc1ccccc1CNc1n[nH]c(NCc2ccccc2OC)n1	< 4.00

For the compound shown here, `Cn1c(=O)c2c(cc(Oc3cccc(-c4ccccc4)c3)n2C)n(C)c1=O` , give the reported pIC50.
< 5.00

Try the compound `CCCn1c(=O)c2c(nc3n2CCCN3CC(=O)N2CCN(Cc3ccc(OC)cc3)CC2)n(CCC)c1=O`
< 5.00

Try the compound `O=C1c2ccccc2C(=O)c2c(O)c(O)cc(O)c21`
< 4.40

Try the compound `Cn1c(=O)c2c(cc(/C=C/c3cccc(O)c3)n2C)n(C)c1=O`
< 6.00

Try the compound `Nc1nnc(NCc2c(Cl)cccc2Oc2ccccc2)[nH]1`
< 3.70

Try the compound O=C(CCC1NC(=O)NC1=O)NCCc1c[nH]c2ccccc12 (stereo not drawn)
< 3.70

Try the compound `Cn1c(=O)c2c(cc(NC(=O)c3ccc(Cl)cc3)n2C)n(C)c1=O`
< 5.00
